// data source = ChEMBL document CHEMBL4028845

Target protein (sequence): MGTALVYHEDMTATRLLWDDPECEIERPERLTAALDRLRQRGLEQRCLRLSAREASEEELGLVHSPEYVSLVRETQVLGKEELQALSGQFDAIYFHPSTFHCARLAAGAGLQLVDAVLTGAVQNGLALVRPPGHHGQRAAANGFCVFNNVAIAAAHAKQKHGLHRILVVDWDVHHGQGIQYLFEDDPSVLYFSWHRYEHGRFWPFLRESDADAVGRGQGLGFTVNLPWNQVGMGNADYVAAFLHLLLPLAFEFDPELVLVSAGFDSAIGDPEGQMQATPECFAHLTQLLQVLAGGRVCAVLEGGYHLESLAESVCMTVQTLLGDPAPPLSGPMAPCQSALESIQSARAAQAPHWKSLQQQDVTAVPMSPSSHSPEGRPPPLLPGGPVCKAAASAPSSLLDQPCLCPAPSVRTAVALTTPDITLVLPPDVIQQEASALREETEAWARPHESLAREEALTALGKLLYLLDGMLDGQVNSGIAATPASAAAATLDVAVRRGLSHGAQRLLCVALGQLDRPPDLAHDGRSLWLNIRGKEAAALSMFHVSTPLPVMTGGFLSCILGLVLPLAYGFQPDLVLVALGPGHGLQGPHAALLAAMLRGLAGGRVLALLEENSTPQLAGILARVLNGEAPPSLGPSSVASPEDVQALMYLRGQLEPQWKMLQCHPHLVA
metric-name: IC50

// query Quickly give me recorded IC50 for CC#CCOc1ccc(C(=O)N[C@H](C(=O)NO)C(C)(C)N)cc1
// result > 30 µM

====

protocol-description: Protein binding in mouse plasma
Assay type: ADME, cell-free
test-parameters: read-out: PPB (converted)
metric-name: fraction unbound
Output spec: single numeric token, no unit.

C[C@@H](N)[C@H](NC(=O)c1ccc(C#Cc2ccccc2)cc1)C(=O)NO = 0.086

Okay, now this molecule:
// query Quickly give me recorded fraction unbound for CC#CCOc1ccc(C(=O)N[C@H](C(=O)NO)C(C)(C)N)cc1
// result 0.772

====

study-target: UDP-3-O-acyl-N-acetylglucosamine deacetylase (Pseudomonas aeruginosa (strain ATCC 15692 / PAO1 / 1C / PRS 101 / LMG12228), UniProt P47205)
Sequence (P47205 whole entry): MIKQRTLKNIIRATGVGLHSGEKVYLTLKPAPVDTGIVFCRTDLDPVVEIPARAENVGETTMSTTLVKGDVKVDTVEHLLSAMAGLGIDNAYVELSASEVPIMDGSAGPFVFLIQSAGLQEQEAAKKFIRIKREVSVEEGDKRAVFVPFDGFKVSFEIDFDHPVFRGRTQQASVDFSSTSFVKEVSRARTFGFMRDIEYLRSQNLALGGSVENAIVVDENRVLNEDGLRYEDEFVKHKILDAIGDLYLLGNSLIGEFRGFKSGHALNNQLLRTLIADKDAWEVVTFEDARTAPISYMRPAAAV
protocol-description: Inhibition of Pseudomonas aeruginosa LpxC using UDP-3-O-(R-hydroxydecanoyl)-N-acetylglucosamine as substrate preincubated for 30 mins followed by substrate addition measured after 20 mins by LC-MS/MS analysis
metric-name: IC50 (µM)
The answer is to be given in µM; state only the numeric part.

// query Quickly give me recorded IC50 for CC#CCOc1ccc(C(=O)N[C@H](C(=O)NO)[C@H](N)C(C)C)cc1
// result 0.9

// query Quickly give me recorded IC50 for CC#CCOc1ccc(C(=O)N[C@H](C(=O)NO)[C@@H](N)C(F)(F)F)cc1
// result 0.039

====

Below is a list of entries, each paired with its recorded solubility value.
protocol-description: Solubility of the compound at pH 6.8 by high throughput screening assay
Assay type: physicochemical
test-parameters: buffer, read-out: solubility

Consider the following illustrative entries.
CC#CCOc1ccc(C(=O)N[C@H](C(=O)NO)[C@@H](C)N)cc1 = 295 µg/mL
CC#CCOc1ccc(C(=O)N[C@H](C(=O)NO)C(C)(C)N)cc1 = > 327 µg/mL
CCCCc1ccc(C(=O)N[C@H](C(=O)NO)[C@@H](C)N)cc1 = > 293 µg/mL

Okay, now this compound:
// query Quickly give me recorded solubility for CCc1ccc(-c2ccc(C(=O)N[C@H](C(=O)NO)[C@@H](C)N)cc2)cc1
// result 4 µg/mL

====

study-target: Histone deacetylase 1 (Homo sapiens)
Sequence (Q13547 whole entry): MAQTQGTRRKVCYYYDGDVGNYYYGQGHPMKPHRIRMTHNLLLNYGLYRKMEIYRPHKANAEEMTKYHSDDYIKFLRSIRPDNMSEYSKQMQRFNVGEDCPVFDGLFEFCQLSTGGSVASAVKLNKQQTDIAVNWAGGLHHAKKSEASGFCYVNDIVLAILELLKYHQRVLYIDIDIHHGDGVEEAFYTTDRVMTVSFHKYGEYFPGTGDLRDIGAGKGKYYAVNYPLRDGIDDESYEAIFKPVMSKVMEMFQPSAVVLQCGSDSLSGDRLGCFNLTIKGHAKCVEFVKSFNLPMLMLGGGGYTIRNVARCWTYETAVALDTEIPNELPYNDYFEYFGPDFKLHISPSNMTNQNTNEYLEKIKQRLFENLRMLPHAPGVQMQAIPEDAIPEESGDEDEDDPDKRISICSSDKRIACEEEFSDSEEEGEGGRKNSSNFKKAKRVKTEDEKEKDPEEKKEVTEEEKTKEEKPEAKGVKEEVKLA
metric-name: IC50

// query Quickly give me recorded IC50 for CC#CCOc1ccc(C(=O)N[C@H](C(=O)NO)C(C)(C)N)cc1
// result > 30 µM

====

protocol-description: Protein binding in human plasma
Type: ADME, cell-free
test-parameters: read-out: PPB (converted)
metric-name: fraction unbound
Output spec: single numeric token, no unit.

CC#CCOc1ccc(C(=O)N[C@H](C(=O)NO)C(C)(C)N)cc1 = 0.193

// query Quickly give me recorded fraction unbound for C[C@@H](N)[C@H](NC(=O)c1ccc(C#Cc2ccccc2)cc1)C(=O)NO
// result 0.081

====

study-target: Histone deacetylase 11 (Homo sapiens)
Sequence (Q96DB2 whole entry): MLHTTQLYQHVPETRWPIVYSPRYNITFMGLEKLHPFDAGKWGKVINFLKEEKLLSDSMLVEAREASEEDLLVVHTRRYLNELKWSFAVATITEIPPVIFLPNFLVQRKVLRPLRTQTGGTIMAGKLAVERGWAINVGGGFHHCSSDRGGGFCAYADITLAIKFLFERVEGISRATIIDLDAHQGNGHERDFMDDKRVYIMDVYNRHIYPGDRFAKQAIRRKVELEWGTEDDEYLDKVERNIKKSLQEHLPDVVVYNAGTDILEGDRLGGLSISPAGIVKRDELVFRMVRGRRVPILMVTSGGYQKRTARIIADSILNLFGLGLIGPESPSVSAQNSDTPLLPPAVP
metric-name: IC50

// query Quickly give me recorded IC50 for CC#CCOc1ccc(C(=O)N[C@H](C(=O)NO)C(C)(C)N)cc1
// result > 30 µM

====

study-target: Histone deacetylase 9 (Homo sapiens, UniProt Q9UKV0)
Sequence (Q9UKV0 whole entry): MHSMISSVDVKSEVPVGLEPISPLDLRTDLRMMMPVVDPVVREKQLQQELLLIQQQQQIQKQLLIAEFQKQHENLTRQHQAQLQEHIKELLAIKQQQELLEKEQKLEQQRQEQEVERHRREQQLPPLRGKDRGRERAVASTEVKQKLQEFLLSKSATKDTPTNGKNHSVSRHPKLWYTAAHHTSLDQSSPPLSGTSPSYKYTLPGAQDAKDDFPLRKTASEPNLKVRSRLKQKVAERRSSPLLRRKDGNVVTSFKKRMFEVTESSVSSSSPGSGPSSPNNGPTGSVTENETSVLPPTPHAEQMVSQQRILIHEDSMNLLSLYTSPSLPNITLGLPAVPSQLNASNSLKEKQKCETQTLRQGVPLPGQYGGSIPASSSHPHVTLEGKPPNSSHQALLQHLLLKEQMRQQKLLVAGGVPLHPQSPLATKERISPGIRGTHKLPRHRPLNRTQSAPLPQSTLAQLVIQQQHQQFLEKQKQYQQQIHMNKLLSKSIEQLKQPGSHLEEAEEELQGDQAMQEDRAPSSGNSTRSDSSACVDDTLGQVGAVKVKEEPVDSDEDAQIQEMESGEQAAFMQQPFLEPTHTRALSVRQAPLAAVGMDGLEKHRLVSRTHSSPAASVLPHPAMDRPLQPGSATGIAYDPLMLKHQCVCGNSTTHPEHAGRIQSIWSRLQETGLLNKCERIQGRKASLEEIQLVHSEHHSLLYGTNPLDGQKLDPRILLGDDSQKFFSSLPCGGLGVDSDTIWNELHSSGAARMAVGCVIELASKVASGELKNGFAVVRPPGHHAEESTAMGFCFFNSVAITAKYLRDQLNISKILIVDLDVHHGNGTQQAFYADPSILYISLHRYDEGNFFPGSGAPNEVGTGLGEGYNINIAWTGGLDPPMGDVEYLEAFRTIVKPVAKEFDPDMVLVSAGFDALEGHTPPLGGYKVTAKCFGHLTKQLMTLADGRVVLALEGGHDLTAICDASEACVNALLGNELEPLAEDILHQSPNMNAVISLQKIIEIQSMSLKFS
metric-name: IC50

// query Report IC50 on Histone deacetylase 9 (Homo sapiens, UniProt Q9UKV0) for this entry: CC#CCOc1ccc(C(=O)N[C@H](C(=O)NO)C(C)(C)N)cc1
// result > 30 µM

====

study-target: Histone deacetylase 8 (Homo sapiens, UniProt Q9BY41)
Sequence (Q9BY41 whole entry): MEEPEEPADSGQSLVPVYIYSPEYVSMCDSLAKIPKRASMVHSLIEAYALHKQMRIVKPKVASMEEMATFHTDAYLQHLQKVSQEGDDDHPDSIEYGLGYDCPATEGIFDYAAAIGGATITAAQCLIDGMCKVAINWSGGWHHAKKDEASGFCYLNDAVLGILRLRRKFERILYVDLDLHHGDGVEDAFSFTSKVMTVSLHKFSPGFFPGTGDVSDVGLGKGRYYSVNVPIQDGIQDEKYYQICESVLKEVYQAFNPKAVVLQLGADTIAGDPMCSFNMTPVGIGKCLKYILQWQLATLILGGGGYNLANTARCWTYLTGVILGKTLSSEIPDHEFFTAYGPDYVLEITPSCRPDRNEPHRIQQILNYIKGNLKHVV
pIC50: −log10 of the molar value.
metric-name: pIC50

// query Quickly give me recorded pIC50 for CC#CCOc1ccc(C(=O)N[C@H](C(=O)NO)C(C)(C)N)cc1
// result < 4.52

====

Below is a list of entries, each paired with its recorded CC50 at 72 h value.
protocol-description: Cytotoxicity against human K562 cells assessed as reduction in cell viability after 72 hrs by WST1 assay
Assay type: cell-based

Consider the following illustrative entries.
CC#CCOc1ccc(C(=O)N[C@H](C(=O)NO)[C@@H](C)N)cc1 = > 419 µM
CC#CCOc1ccc(C(=O)N[C@H](C(=O)NO)C(C)(C)N)cc1 = > 295 µM

Okay, now this compound:
// query Quickly give me recorded CC50 at 72 h for C[C@@H](NCC(=O)N1CCNC(=O)C1)[C@H](NC(=O)c1ccc(C#Cc2ccccc2)cc1)C(=O)NO
// result > 100 µM

====

study-target: UDP-3-O-acyl-N-acetylglucosamine deacetylase (Pseudomonas aeruginosa (strain ATCC 15692 / PAO1 / 1C / PRS 101 / LMG12228))
protocol-description: Inhibition of Pseudomonas aeruginosa LpxC using UDP-3-O-(R-hydroxydecanoyl)-N-acetylglucosamine as substrate preincubated for 30 mins followed by substrate addition measured after 20 mins by LC-MS/MS analysis
metric-name: IC50 (nM)
The answer is to be given in nM; state only the numeric part.

Consider the following illustrative entries.
CCCCc1ccc(C(=O)N[C@H](C(=O)NO)[C@@H](C)N)cc1 = 37.5
C[C@@H](NCC(=O)N1CCNC(=O)C1)[C@H](NC(=O)c1ccc(C#Cc2ccccc2)cc1)C(=O)NO = 4.19
CCc1ccc(-c2ccc(C(=O)N[C@H](C(=O)NO)[C@@H](C)N)cc2)cc1 = 1.46
C[C@@H](N)[C@H](NC(=O)c1ccc(C#Cc2ccccc2)cc1)C(=O)NO = 3.56
C[C@@H](N)[C@H](NC(=O)c1ccc(N2CCOCC2)cc1)C(=O)NO = 1640
CCc1ccc(-c2ccc(C(=O)N[C@H](C(=O)NO)[C@@H](C)NCC(=O)O)cc2)cc1 = 1

Okay, now this compound:
// query Quickly give me recorded IC50 for C[C@@H](N)[C@H](NC(=O)c1ccc(OC(C)(C)C)cc1)C(=O)NO
// result 268
